Test system: SK-MEL-28 melanoma
testProtocol: NCI tumour cell line growth inhibition, 48 h
propertyMeasured: TGI

Here's what some known entries look like.
compound=COc1cc2ncn(-c3cc(OCc4cccs4)c(C(N)=O)s3)c2cc1OC reportedmeasurement="> 25 µM"
compound=COc1ccc(C[C@@H](CO)NC2=C(C#N)CCC2)cc1 reportedmeasurement="> 100 µM"
compound=Cc1ccc2c(c1)Sc1c(ccc3ccccc13)N2 reportedmeasurement="> 100 µM"
compound=O=C(O)c1ccccc1/C=N/NC1=NCCN1 reportedmeasurement="> 100 µM"
compound="C[C@@H]1OC(=O)N2CCCC(=C3SCCCS3)C12 (stereo not given in full)" reportedmeasurement="> 100 µM"
compound=O=S(=O)(O)C1=C2Sc3ccccc3N=C2c2ccccc2C1 reportedmeasurement="31.4 µM"
compound=COc1ccccc1NC(=S)Nc1cc(C)cc(C)n1 reportedmeasurement="> 100 µM"
compound="O=C(CC1C(=O)NN(c2ccc(Br)cc2)C1=O)c1cc(O)ccc1O (stereo not given)" reportedmeasurement="> 50 µM"

Answer for every listed entry: what is its TGI? The entries follow.
1. CC(C)NC(NC(C)C)=C(S(=O)(=O)C(F)(F)C(F)(F)C(F)(F)C(F)(F)F)S(=O)(=O)C(F)(F)C(F)(F)C(F)(F)C(F)(F)F
2. CN(C)CCNC(=O)c1cccc2ccc(-c3ccncc3)nc12
3. COc1cc(C(=O)CBr)c(OC)cc1C
4. CC(C)(CO)N1CCN(C(=S)Nc2ccccc2)CC1
5. O=c1[nH]c(=O)n(CCOc2ccccc2)cc1Nc1ccccc1

> 100 µM
17.5 µM
> 100 µM
> 100 µM
> 100 µM

---

Tested on: IGROV1 ovarian
testProtocol: NCI tumour cell line growth inhibition, 48 h; in the data active = GI50 below about 0.43 µM; inactive = the rest
Would you mind answering with one of these outcomes? True = active, False = inactive

compound=Cc1ccc(C(=O)NC(C)C)cc1-c1ccc(C(=O)NCC2CC2)cc1 grouplabel=False
compound=COc1ccc(C(=O)C#Cc2cnc(OC)nc2OC)cc1 grouplabel=False
compound="O=C1CCC(N2C(=O)c3ccccc3C2=O)C(=O)N1CO (stereo unspecified)" grouplabel=False

State the result this test recorded for COc1cc[nH]c1/C=C1\C(=O)Nc2ccc(F)c(C#CC3(O)CCNCC3)c21 .
True

State the result this test recorded for COc1ccc2c(c1)C(=O)c1c-2n(CCCn2ccnc2)c(=O)c2cc([N+](=O)[O-])ccc12 .
True

State the result this test recorded for OCCCNc1nc(=S)[nH]c2[nH]ncc12 .
False

---

Tested on: MDA-MB-231 breast
testProtocol: NCI tumour cell line growth inhibition, 48 h
propertyMeasured: GI50

Answer for every listed entry: what is its GI50? The entries follow.
1. CS(=O)(=O)c1ccc(-n2nc(C(F)(F)F)cc2OC2CCCC2)cc1
2. Nc1nc2c(nnn2C2CC(O)C(CO)O2)c(=O)[nH]1 (stereo not given)
3. CCCCCCCC[C@@H](O)CC(=O)N[C@@H](CC(N)=O)C(=O)N[C@@H](CCC(N)=O)C(=O)N[C@@H](CC(=O)c1cc(C)cc(O)c1C(=O)c1c(O)cccc1O)CC(C)C
4. C[N+]1=C(/C=C/c2ccc(O)c3ncccc23)C(C)(C)c2ccccc21

["26 µM", "5.41 µM", "0.678 µM", "2.75 µM"]

Answer for every listed entry: what is its GI50? The entries follow.
1. O=C1CCC(N2C(=O)c3ccccc3C2=O)C(=O)N1CO (stereo not given)
2. COc1cc2cc(Oc3ccc(NC(=O)Nc4ccc(Cl)c(C(F)(F)F)c4)cc3)c(C)nc2cc1OCCN1CCOCC1
3. Cc1ccc2c(c1)Sc1c(ccc3ccccc13)N2
4. CC/C=C\C[C@@H](O)C/C=C1/C(=O)C=C[C@H]1C/C=C\CCCC(=O)OC
5. Nc1nc(N(Cc2ccccc2)c2ccccc2)c2cn[nH]c2n1
6. COc1ccc(-c2onc(N)c2-c2cc(OC)c3c(c2)OCO3)cc1

1: > 100 µM; 2: 2 µM; 3: 42.1 µM; 4: 6.06 µM; 5: 6.41 µM; 6: 3.4 µM
